# target_entity: Serine/threonine-protein kinase Nek1 (Homo sapiens)
# assay_remarks: Inhibition of human recombinant NEK1 (1 to 505 residues) assessed as residual activity at 1 uM using RLGRDKYKTLRQIRQ as substrate incubated for 40 mins in presence of [gamma-33P]-ATP by radiometric scintillation counting assay relative to control
attribute_measured: Activity (%)

A selection of reference data follows.
> print(dat)
                              record.smiles  unit.label  result.number
1  O=S(=O)(N[C@@H](CO)Cc1ccccc1)c1ccc(-c2ccnc3[nH]ccc23)cc1           %             16
2  COCCNS(=O)(=O)c1ccc(-c2ccnc3[nH]ccc23)cc1           %             44
3  CCN(CC)CCNS(=O)(=O)c1ccc(-c2ccnc3[nH]ccc23)cc1           %             68

[P] O=S(=O)(NCCO)c1ccc(-c2ccnc3[nH]ccc23)cc1
[Q] O=S(=O)(N[C@H](CO)Cc1c[nH]c2ccccc12)c1ccc(-c2ccnc3[nH]ccc23)cc1
// select label with min value of measured Activity from [ P , Q ] Please respond with the label that marks your chosen entry.
P

----------
# target_entity: Serine/threonine-protein kinase Nek1 (Homo sapiens)
# Sequence (Q96PY6 whole entry): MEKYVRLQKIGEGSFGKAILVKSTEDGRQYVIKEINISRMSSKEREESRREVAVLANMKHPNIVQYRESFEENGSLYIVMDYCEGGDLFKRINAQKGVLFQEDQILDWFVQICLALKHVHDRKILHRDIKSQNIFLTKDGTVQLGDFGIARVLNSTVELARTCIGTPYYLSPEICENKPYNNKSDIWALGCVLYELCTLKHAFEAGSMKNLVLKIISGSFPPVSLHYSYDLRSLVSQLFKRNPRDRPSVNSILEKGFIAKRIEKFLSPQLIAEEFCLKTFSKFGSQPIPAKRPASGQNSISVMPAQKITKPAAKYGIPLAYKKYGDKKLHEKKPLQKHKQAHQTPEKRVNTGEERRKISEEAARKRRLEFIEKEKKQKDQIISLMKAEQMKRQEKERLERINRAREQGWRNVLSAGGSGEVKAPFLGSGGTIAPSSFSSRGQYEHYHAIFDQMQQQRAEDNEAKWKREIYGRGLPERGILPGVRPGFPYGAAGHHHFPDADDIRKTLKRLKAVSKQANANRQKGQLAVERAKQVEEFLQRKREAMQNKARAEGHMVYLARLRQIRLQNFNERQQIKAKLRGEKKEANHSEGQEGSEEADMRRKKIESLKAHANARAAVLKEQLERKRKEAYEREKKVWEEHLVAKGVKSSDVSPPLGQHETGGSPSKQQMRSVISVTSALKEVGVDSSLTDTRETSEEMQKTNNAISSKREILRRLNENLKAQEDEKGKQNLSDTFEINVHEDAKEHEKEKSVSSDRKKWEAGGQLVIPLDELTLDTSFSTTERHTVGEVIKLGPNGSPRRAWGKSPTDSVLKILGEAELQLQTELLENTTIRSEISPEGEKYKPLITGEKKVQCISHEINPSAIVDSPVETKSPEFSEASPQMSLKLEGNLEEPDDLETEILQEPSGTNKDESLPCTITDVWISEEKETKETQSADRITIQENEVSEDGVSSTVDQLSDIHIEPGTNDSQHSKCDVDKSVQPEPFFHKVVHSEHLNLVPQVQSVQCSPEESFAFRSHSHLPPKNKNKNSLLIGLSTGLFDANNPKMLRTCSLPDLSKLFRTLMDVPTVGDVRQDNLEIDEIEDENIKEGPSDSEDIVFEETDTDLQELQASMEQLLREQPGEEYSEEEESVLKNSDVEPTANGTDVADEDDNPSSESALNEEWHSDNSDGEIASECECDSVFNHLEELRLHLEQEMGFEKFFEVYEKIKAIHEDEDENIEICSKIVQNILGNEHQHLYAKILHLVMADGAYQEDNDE
# assay_remarks: Inhibition of human recombinant NEK1 (1 to 505 residues) using ULight-p70 S6K peptide as substrate incubated for 30 mins by LANCE Ultra TR-FRET assay
attribute_measured: IC50 (µM)

[P] CC(C)(O)CNS(=O)(=O)c1ccc(-c2ccnc3[nH]ccc23)cc1
[Q] O=S(=O)(NCCN1CCOCC1)c1ccc(-c2ccnc3[nH]ccc23)cc1
[R] O=S(=O)(N[C@H](CO)Cc1ccc(O)cc1)c1ccc(-c2ccnc3[nH]ccc23)cc1
[S] CC(=O)OCCNS(=O)(=O)c1ccc(-c2ccnc3[nH]ccc23)cc1
Lab note: order the above by reported IC50, lowest first, highest last. Present the labels in the sequence the task asks for.
R, P, S, Q

[P] CN(C)CCNS(=O)(=O)c1ccc(-c2ccnc3[nH]ccc23)cc1
[Q] O=S(=O)(N[C@H](CO)Cc1c[nH]c2ccccc12)c1ccc(-c2ccnc3[nH]ccc23)cc1
// select label with min value of measured IC50 from [ P , Q ] Please respond with the label that marks your chosen entry.
Q

----------
# target_entity: Serine/threonine-protein kinase Nek1 (Homo sapiens)
# Sequence (Q96PY6 whole entry): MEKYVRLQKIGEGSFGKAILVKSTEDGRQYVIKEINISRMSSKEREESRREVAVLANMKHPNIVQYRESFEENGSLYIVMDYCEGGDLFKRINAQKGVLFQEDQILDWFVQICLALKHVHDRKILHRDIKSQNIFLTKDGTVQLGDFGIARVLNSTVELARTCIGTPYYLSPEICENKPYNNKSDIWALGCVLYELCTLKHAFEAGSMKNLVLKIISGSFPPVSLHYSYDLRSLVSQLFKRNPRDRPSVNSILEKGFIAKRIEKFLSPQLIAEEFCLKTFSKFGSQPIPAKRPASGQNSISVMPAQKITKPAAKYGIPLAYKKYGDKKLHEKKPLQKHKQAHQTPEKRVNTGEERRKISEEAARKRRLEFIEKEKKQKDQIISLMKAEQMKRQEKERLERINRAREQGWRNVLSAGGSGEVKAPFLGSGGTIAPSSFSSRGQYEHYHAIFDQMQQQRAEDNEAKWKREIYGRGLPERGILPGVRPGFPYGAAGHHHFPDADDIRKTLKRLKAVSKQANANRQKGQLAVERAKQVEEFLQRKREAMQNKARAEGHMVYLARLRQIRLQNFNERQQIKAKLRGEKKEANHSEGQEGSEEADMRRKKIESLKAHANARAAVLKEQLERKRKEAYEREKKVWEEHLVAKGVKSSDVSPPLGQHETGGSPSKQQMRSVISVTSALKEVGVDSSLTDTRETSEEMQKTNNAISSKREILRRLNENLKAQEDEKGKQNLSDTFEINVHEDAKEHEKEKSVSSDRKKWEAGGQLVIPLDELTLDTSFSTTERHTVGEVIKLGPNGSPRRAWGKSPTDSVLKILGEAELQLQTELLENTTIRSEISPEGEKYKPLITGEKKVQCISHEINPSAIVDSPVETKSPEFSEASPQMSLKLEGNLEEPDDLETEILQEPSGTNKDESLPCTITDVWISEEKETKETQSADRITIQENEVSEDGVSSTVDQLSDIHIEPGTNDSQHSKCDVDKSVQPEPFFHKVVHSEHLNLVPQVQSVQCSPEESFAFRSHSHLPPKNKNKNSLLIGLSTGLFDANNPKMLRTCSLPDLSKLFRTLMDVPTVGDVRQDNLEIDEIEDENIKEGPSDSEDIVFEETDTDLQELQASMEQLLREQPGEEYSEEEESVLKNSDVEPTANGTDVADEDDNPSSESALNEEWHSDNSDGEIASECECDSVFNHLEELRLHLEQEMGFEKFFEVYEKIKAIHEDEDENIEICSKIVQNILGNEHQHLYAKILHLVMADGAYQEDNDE
# assay_remarks: Inhibition of human recombinant NEK1 (1 to 505 residues) using ULight-p70 S6K peptide as substrate incubated for 30 mins by LANCE Ultra TR-FRET assay
attribute_measured: IC50 (nM)

A selection of reference data follows.
> print(dat)
                              record.smiles  result.number
1  O=S(=O)(N[C@@H](CO)Cc1ccccc1)c1ccc(-c2ccnc3[nH]ccc23)cc1           1300
2  O=S(=O)(NCCO)c1ccc(-c2ccnc3[nH]ccc23)cc1           3200
3  O=S(=O)(N[C@H](CO)Cc1ccccc1)c1ccc(-c2ccnc3[nH]ccc23)cc1           1900
4      O=C(NCCO)c1ccc(-c2ccnc3[nH]ccc23)cc1          29000
5  O=S(=O)(N[C@@H](CO)Cc1c[nH]c2ccccc12)c1ccc(-c2ccnc3[nH]ccc23)cc1            330

[A] O=S(=O)(N[C@@H](CO)Cc1ccc(O)cc1)c1ccc(-c2ccnc3[nH]ccc23)cc1
[B] CN(CCO)S(=O)(=O)c1ccc(-c2ccnc3[nH]ccc23)cc1
// select label with min value of measured IC50 from [ A , B ] Please respond with the label that marks your chosen entry.
A
(A: 1600 nM, B: 2700 nM)

----------
# target_entity: Serine/threonine-protein kinase Nek1 (Homo sapiens) (UniProt Q96PY6)
# assay_remarks: Inhibition of human recombinant NEK1 (1 to 505 residues) assessed as residual activity at 1 uM using RLGRDKYKTLRQIRQ as substrate incubated for 40 mins in presence of [gamma-33P]-ATP by radiometric scintillation counting assay relative to control
attribute_measured: Activity (%)

> print(dat)
                              record.smiles                             target.entity  attribute.measured  unit.label  result.number
1  O=S(=O)(NCCN1CCCCC1)c1ccc(-c2ccnc3[nH]ccc23)cc1  Serine/threonine-protein kinase Nek1 (Homo sapiens) (UniProt Q96PY6)            Activity           %             37
2  CN1CCN(S(=O)(=O)c2ccc(-c3ccnc4[nH]ccc34)cc2)CC1  Serine/threonine-protein kinase Nek1 (Homo sapiens) (UniProt Q96PY6)            Activity           %             45
3  O=S(=O)(NCCN1CCOCC1)c1ccc(-c2ccnc3[nH]ccc23)cc1  Serine/threonine-protein kinase Nek1 (Homo sapiens) (UniProt Q96PY6)            Activity           %             51
4  O=S(=O)(N[C@H](CO)Cc1ccc(O)cc1)c1ccc(-c2ccnc3[nH]ccc23)cc1  Serine/threonine-protein kinase Nek1 (Homo sapiens) (UniProt Q96PY6)            Activity           %             33
5  O=S(=O)(N[C@@H](CO)Cc1c[nH]c2ccccc12)c1ccc(-c2ccnc3[nH]ccc23)cc1  Serine/threonine-protein kinase Nek1 (Homo sapiens) (UniProt Q96PY6)            Activity           %              4

[1] CN(C)CCNS(=O)(=O)c1ccc(-c2ccnc3[nH]ccc23)cc1
[2] O=S(=O)(N[C@H](CO)Cc1ccccc1)c1ccc(-c2ccnc3[nH]ccc23)cc1
[3] O=C(O)[C@H](Cc1ccccc1)NS(=O)(=O)c1ccc(-c2ccnc3[nH]ccc23)cc1
Given 3 molecules, produce a descending ranking by Activity. Present the labels in the sequence the task asks for.
3, 1, 2
(3: 94%, 1: 37%, 2: 19%)
